# Assay overview: HepG2 cell viability effects, profiling panel, calcein-AM fluorescence, 48 h, basal (AID 1164); also: test concentration not given here
# Condition summary: higher = more signal
Label rule, in plain words: z-score of 0.7 and up is TRUE, under 0.7 is FALSE.

Compound: CCOC(=O)C1=CCC(C(C)(C)C)N(S(=O)(=O)c2ccc(C)cc2)C1 (centres undefined)
Class assignment: FALSE
--
Compound: O=C1OCC=C[C@H]2OC34C=CCN(c5ccc(Cl)cc5)C(=O)[C@H]3N(CCCCCCO)C(=O)[C@@H]4[C@@H]12 (some centres undefined)
Class assignment: TRUE
--
Compound: Cc1ccc(S[C@]2(C(=O)NC3CC3)CC(=O)N(C3CCCCC3)[C@@H]2c2ccc(CO)cc2I)cc1
Class assignment: TRUE
--
Compound: COCCOC(=O)N1C(=O)[C@@]2(c3ccccc31)[C@H](C(=O)NC[C@H](O)c1ccccc1)[C@H]1C(=O)O[C@H](c3ccccc3)[C@H](c3ccccc3)N1[C@@H]2c1ccc(OCCO)cc1
Class assignment: FALSE

Entry COc1ccc(C(=O)Nc2cccc(CN3C(=O)[C@]4(O[C@H](CC(=O)N5CCC[C@H]5CO)[C@@H]([Si](C)(C)c5ccc(OC)cc5)[C@@H]4C)c4ccccc43)c2)cc1 : is its z-score no less than 0.7?
FALSE

Entry CN1CCC(CCCO)=CC1c1ccc(CN2CCCC2)cc1 (centres undefined) : is its z-score no less than 0.7?
FALSE

Entry CC(C)(C)N1CC=CC23O[C@@H]4C=CCOC(=O)[C@@H]4[C@H]2C(=O)N(CCCCCO)[C@@H]3C1=O (some centres undefined) : is its z-score no less than 0.7?
FALSE

Entry CCCN1C(=O)[C@]2(COC(c3ccc(OCCCO)cc3)=N2)Cc2ccccc21 : is its z-score no less than 0.7?
FALSE

Entry O=C/C=C/c1ccc2c(c1)OCO2 : is its z-score no less than 0.7?
TRUE

----------
# Measured target: Homeobox protein Hox-A13 (Mus musculus)
# Assay overview: inhibitors of HoxA13-DNA binding, primary screen, biochemical, fluorescence polarization, labeled oligonucleotide (AID 1185)
# Condition summary: 15 min, higher = more signal, called active from +8 up or from −8 down
Measured z-score values are reported for all entries that follow.
I'd appreciate a reply containing only the number, no unit.

Molecule: COC(=O)c1ccc(C(O)C2C=CC3C(=O)N(C)C(=O)C3N2NC(=O)OC(C)(C)C)o1 (centres undefined)
z-score: -1.46
//
Molecule: COC(=O)c1ccc(OC)c(/C=C\CC(OC(C)=O)c2ccccc2)c1 (centres undefined)
z-score: -2.35
//
Molecule: C[N+](C)(C)CCCCCCNC(=O)[C@H]1C[C@H]2C(=O)N3CCC[C@H]3C(=O)N2[C@H]1c1ccc(O)cc1
z-score: 0.0641

What z-score value was documented for this molecule, COCCOC(=O)N1C(=O)[C@@]2(c3cc(C#CC4(O)CCCCCC4)ccc31)[C@H](C(=O)N1CCCCCCC1)[C@H]1C(=O)O[C@H](c3ccccc3)[C@H](c3ccccc3)N1[C@@H]2c1ccccc1OCCO ?
3.19

----------
# Assay overview: A549 cell viability effects, profiling panel, calcein-AM fluorescence, 48 h, basal (AID 1162); also: test concentration not given here
# Condition summary: higher = more signal
Measured z-score values are reported for all entries that follow.

Guide cases for z-score, answers given:
Chemical string: CO[C@H]1O[C@H](CO)[C@@H](OC(=O)Nc2ccc(Oc3ccccc3)cc2)[C@H](OC(=O)Nc2ccccc2)[C@H]1OC(=O)Nc1ccccc1
z-score: -1.63
--
Chemical string: O=C1O[C@H](c2ccccc2)[C@H](c2ccccc2)N2[C@H]1[C@@H](C(=O)O)[C@]1(C(=O)Nc3ccc(C#CC4(O)CCCCCC4)cc31)[C@H]2c1ccc(OCCO)cc1
z-score: 0.82

What z-score value was documented for this molecule, CC(C)NC(=O)[C@@]1(Cc2ccccc2I)c2ccccc2C(=O)N(Cc2ccccc2)[C@H]1c1ccc(CO)cc1 ?
-0.547

----------
# Measured target: Alpha-bungarotoxin (Bungarus multicinctus)
# Assay overview: alpha-bungarotoxin binders on microarray, profiling panel, artefact control for SMM control protein annotation, biochemical, small-molecule microarray, Alexa647 label, 635/667 nm fluorescence (AID 1117)
# Condition summary: alpha-BTX-A647 binding fluorescence, higher = more signal
Label rule, in plain words: composite z-score of 1 and up is condition met, under 1 is condition not met.

Some entries whose results are on file:
Compound: O=C1N(CCS(=O)(=O)c2ccccc2)Cc2ccccc2[C@H]2OC(c3ccc(OCCCO)cc3)=N[C@@]12CCS(=O)(=O)c1ccccc1
Class assignment: condition met
//
Compound: CC(C)C(=C=CC[C@H](O)c1ccccc1OCCO)C[C@H](O)c1ccccn1
Class assignment: condition met
//
Compound: [N-]=[N+]=Nc1ccccc1[C@@H]1OC(c2ccc(OCCCO)cc2)=N[C@]1(CCS(=O)(=O)c1ccccc1)C(=O)N1CCOCC1
Class assignment: condition met
//
Compound: CC(C)c1ccc(NN2C(C(O)c3cccc(O)c3)C=CC3C(=O)N(c4ccccc4)C(=O)C32)cc1 (stereo not drawn)
Class assignment: condition met
//
Compound: COc1ccc([Si](C)(C)[C@H]2[C@H](CC(=O)N(CCO)Cc3ccccc3)O[C@@]3(C(=O)N(Cc4cccc(N5CCC5=O)c4)c4ccccc43)[C@@H]2C)cc1
Class assignment: condition met

Entry C=C(CCCC)C(=O)CC[C@H](OC(=O)c1cccnc1)c1cccc(OCCO)c1 : is its composite z-score no less than 1?
condition not met

Entry CC(C)OC(=O)CC(=O)CC(O)c1ccc(C#N)cc1 (stereo not drawn) : is its composite z-score no less than 1?
condition met

Entry CCCCC(O)C1C=CC2C(=O)N(C3CCCCC3)C(=O)C2N1Nc1ccc(OC)cc1 (stereo not drawn) : is its composite z-score no less than 1?
condition not met

----------
# Assay overview: basal RPMI8226 viability, no added stimulus, profiling panel, cell-based, calcein-AM fluorescence, 48 h, PK04 Diversity Set (AID 1166);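 also: cells grown under basal conditions without added stimulus; test concentration not given here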
# Condition summary: RPMI8226 myeloma viability, higher = more signal
Measured z-score values are reported for all entries that follow.
I'd appreciate a reply containing only the number, no unit.

Guide cases for z-score, answers given:
Compound: CC(C)C(=C=CC[C@@H](O)c1ccccc1OCCO)C[C@@H](O)c1ccccn1
Reading: 0.0845

Compound: [N-]=[N+]=NCc1ccccc1C[C@@]1(C(=O)NCC(O)CO)N=C(c2ccc(OCCCO)cc2)O[C@@H]1c1ccccc1CN=[N+]=[N-] (some centres undefined)
Reading: -2.2

Compound: CCC(CC)C(O)C1C=CC2C(=O)N(c3ccccc3)C(=O)C2N1Nc1ccc(C#N)cc1 (centres undefined)
Reading: -0.452

Compound: CCN(CC)c1ccc(N2CC=CC34O[C@@H]5/C=C\CCCOC(=O)C5[C@H]3C(=O)N(C(CO)C(C)C)[C@@H]4C2=O)cc1 (some centres undefined)
Reading: -0.62

Compound: CC(C)NC(=O)[C@@]1(Cc2ccccc2I)c2ccccc2C(=O)N(Cc2ccccc2)[C@H]1c1ccc(CO)cc1
Reading: -0.651

Compound: O=C1c2ccccc2[C@@]2(Cc3ccccc3N(Cc3ccccc3)C2=O)[C@H](c2ccc(CO)cc2)N1C1CCCCC1
Reading: -0.977

Compound: C=CC[C@@]1(C(=O)NCC(O)CO)N=C(c2ccc(OCCCO)cc2)O[C@@H]1c1ccccc1N=[N+]=[N-] (some centres undefined)
Reading: -1.14

Compound: C=CCC(OC(C)=O)[C@@H]1[C@@H](N(Cc2ccc(-c3cccc(C(F)(F)F)c3)o2)C(=O)c2ccc(C)cc2)c2cc(OCCCO)ccc2N1C(=O)c1ccc(-c2ccccc2)cc1 (some centres undefined)
Reading: 0.657

What z-score value was documented for this compound, COc1ccc([Si](C)(C)[C@H]2[C@H](CCn3cc(CCO)nn3)O[C@@]3(C(=O)N(Cc4ccc(N5CCOC5=O)cc4)c4ccccc43)[C@@H]2C)cc1 ?
-2.73

----------
Measured composite z-score values are reported for all entries that follow.
# Assay overview: small-molecule microarray binders of probe aDKK1, primary screen, biochemical, biotinylated probe, 635/667 nm fluorescence (AID 1099);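 also: score merges 667nm spot fluorescence with signal to noise across triplicate slides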
# Condition summary: higher = more signal
I'd appreciate a reply containing only the number, no unit.

Molecule: COc1ccc(C#Cc2ccc3c(c2)[C@]2(C(=O)N3)[C@H](C(=O)NC[C@H](O)c3ccccc3)[C@H]3C(=O)O[C@H](c4ccccc4)[C@H](c4ccccc4)N3[C@@H]2c2ccc(OCCO)cc2)cc1
Endpoint: composite z-score
Reading: 0.0324
--
Molecule: COC(=O)c1ccc(C(O)C2C=CC3C(=O)N(C)C(=O)C3N2NC(=O)OC(C)(C)C)o1 (configuration not stated)
Endpoint: composite z-score
Reading: 0.49
--
Molecule: CC(C)N1C(=O)[C@@]2(c3ccc([N+](=O)[O-])cc3)CC(=O)N(CC34CC5CC(CC(C5)C3)C4)[C@@H]2c2ccc(CO)cc21
Endpoint: composite z-score
Reading: -0.0981
--
Molecule: COC(=O)[C@@]1(Cc2ccccc2)[C@H]2c3cc(C(=O)N(C)C)n(Cc4cc(C)n(C)n4)c3C[C@H]2CN1C(=O)c1ccccc1
Endpoint: composite z-score
Reading: 0.866

What composite z-score value was documented for this molecule, CCCC[C@H]1OB(O)C[C@H]2C1=C(C)C[C@H]1C(=O)N(Cc3ccccc3)C(=O)[C@H]12 ?
-0.109

What composite z-score value was documented for this molecule, Cc1ccc(S[C@]2(C(=O)NCC(C)C)CC(=O)N(Cc3ccccc3Cl)[C@@H]2c2ccc(CO)cc2)cc1 ?
0.254

What composite z-score value was documented for this molecule, CC(C)(C)OC(=O)CC[C@]1(C(=O)N2CCCCC2)N=C(c2ccc(OCCCO)cc2)O[C@H]1c1ccccc1N=[N+]=[N-] ?
0.639

meta.source: PubChem BioAssay
